Values compiled from paper PMC7053805.

Experiment: in vitro
Settings: Free fraction in cell culture media
valueType: fraction unbound

> print(dat)
                                   compound  testvalue
1  CNC(C)C1CCC(N)C(OC2C(N)CC(N)C(OC3OCC(C)(O)C(NC)C3O)C2O)O1 (stereo not shown) [Gentamicin, gentamicin]      0.897
